- Test system: Staphylococcus aureus
- assay details: Antibacterial activity against Staphylococcus aureus ATCC 29213 after 24 hrs by two-fold serial dilution method
- Format: functional
- assay conditions: ATCC 29213, 24 h
measurement label: MIC (µM)
Answers are plain numbers, in µM.

# count of solved cases: 3
{"columns": ["molecule", "unit", "MIC"],
 "data": [
  ["CC1(C)S[C@@H]2[C@H](NC(=O)[C@H](N)c3ccccc3)C(=O)N2[C@H]1C(=O)O [AMPICILLIN]", "µM", 716],
  ["CCOC(=O)C1=C(N/C=N/c2ccccn2)Nc2[nH]nc(C)c2C1c1ccc(N(C)C)cc1 (centres undefined)", "µM", 70.1],
  ["CCOC(=O)C1=C(N/N=C(/C(=O)Br)c2ccc(Cl)cc2)Nc2[nH]nc(C)c2C1c1ccc(N(C)C)cc1 (centres undefined)", "µM", 427]
]}

(Q) For CCOC(=O)C(=NNC1=C(C(=O)OCC)C(c2ccc(N(C)C)cc2)c2c(C)n[nH]c2N1)C(=O)OCC (centres undefined) , what is its reported MIC?
(A) 976

* * *

- assay details: Displacement of methyl green from DNA (unknown origin) incubated in dark for 24 hrs
Kindly supply the reported pIC50 values for the records listed here.
Numbers only, as −log10 of the molar value.

{"columns": ["compound", "pIC50"],
 "data": [
  ["CCOC(=O)C1=C(N/C=N/c2nnc(S(N)(=O)=O)s2)Nc2[nH]nc(C)c2C1c1ccc(N(C)C)cc1 (centres undefined)", 4.10]
]}

Each compound below has a recorded value; state its pIC50.
1. CCOC(=O)C1=C(N/N=C(\c2ccc([N+](=O)[O-])cc2)N2CCN(c3ccc(F)cc3)CC2)Nc2[nH]nc(C)c2C1c1ccc(N(C)C)cc1 (centres undefined)
2. CCOC(=O)C1=C(NN=C(C(C)=O)C(C)=O)Nc2[nH]nc(C)c2C1c1ccc(N(C)C)cc1 (centres undefined)

(A)
4.29
4.45

* * *

- Test system: Aspergillus fumigatus
- assay details: Antifungal activity against Aspergillus fumigatus 293 after 48 hrs by two-fold serial dilution method
- Type: functional
- assay conditions: Aspergillus fumigatus, 293, 48 h
measurement label: MIC (µM)
Numbers only, in µM.

{"columns": ["molecule", "unit", "MIC"],
 "data": [
  ["CCOC(=O)C1=C(N/N=C(/C(=O)Br)c2ccc(Br)cc2)Nc2[nH]nc(C)c2C1c1ccc(N(C)C)cc1 (centres undefined)", "µM", 793]
]}

Each molecule below has a recorded value; state its MIC.
1. CCOC(=O)C1=C(N/N=C(/Br)c2ccccc2)Nc2[nH]nc(C)c2C1c1ccc(N(C)C)cc1 (centres undefined)
2. CCOC(=O)C1=C(N/C=N/c2ccc(C)cc2)Nc2[nH]nc(C)c2C1c1ccc(N(C)C)cc1 (centres undefined)
3. CCOC(=O)C1=C(N/N=C(\C(C)=O)C(=O)c2ccccc2)Nc2[nH]nc(C)c2C1c1ccc(N(C)C)cc1 (centres undefined)

(A)
[1910, 2180, 3890]

* * *

Kindly supply the reported MIC values for the records listed here.
- System: Staphylococcus aureus
- assay details: Antibacterial activity against Staphylococcus aureus ATCC 29213 after 24 hrs by two-fold serial dilution method
- Format: functional
- assay conditions: ATCC 29213, 24 h
Numbers only, in µM.

# count of solved cases: 10
{"columns": ["compound", "value reported"],
 "data": [
  ["CCOC(=O)C1=C(N/N=C(/C#N)C(=O)OCC)Nc2[nH]nc(C)c2C1c1ccc(N(C)C)cc1 (configuration not stated)", 2150],
  ["CCOC(=O)C1=C(N/N=C(/C(=O)Br)c2ccc(Br)cc2)Nc2[nH]nc(C)c2C1c1ccc(N(C)C)cc1 (configuration not stated)", 99.1],
  ["CCOC(=O)C1=C(N/N=C(/Cl)c2ccc([N+](=O)[O-])cc2)Nc2[nH]nc(C)c2C1c1ccc(N(C)C)cc1 (configuration not stated)", 954],
  ["CCOC(=O)C1=C(N/C=N/c2ccc([N+](=O)[O-])cc2)Nc2[nH]nc(C)c2C1c1ccc(N(C)C)cc1 (configuration not stated)", 255],
  ["CCOC(=O)C1=C(N/N=C(/Br)c2ccccc2)Nc2[nH]nc(C)c2C1c1ccc(N(C)C)cc1 (configuration not stated)", 955],
  ["CCOC(=O)C1=C(N/C=N/c2ncc(-c3ccccc3)s2)Nc2[nH]nc(C)c2C1c1ccc(N(C)C)cc1 (configuration not stated)", 59.2],
  ["CCOC(=O)C1=C(N/C=N/c2cccnc2Cl)Nc2[nH]nc(C)c2C1c1ccc(N(C)C)cc1 (configuration not stated)", 65.1],
  ["CCOC(=O)C1=C(N/N=C(/C(C)=O)C(=O)OCC)Nc2[nH]nc(C)c2C1c1ccc(N(C)C)cc1 (configuration not stated)", 2070],
  ["CCOC(=O)C1=C(N/C=N/c2ccc(C)cc2)Nc2[nH]nc(C)c2C1c1ccc(N(C)C)cc1 (configuration not stated)", 136],
  ["CCOC(=O)C1=C(N/N=C(\\C(C)=O)C(=O)c2ccccc2)Nc2[nH]nc(C)c2C1c1ccc(N(C)C)cc1 (configuration not stated)", 1940]
]}

Each compound below has a recorded value; state its MIC.
1. CCOC(=O)C1=C(N/C=N/c2nnc(S(N)(=O)=O)s2)Nc2[nH]nc(C)c2C1c1ccc(N(C)C)cc1 (configuration not stated)
2. CCOC(=O)C1=C(N/N=C(\C#N)C(N)=O)Nc2[nH]nc(C)c2C1c1ccc(N(C)C)cc1 (configuration not stated)

(A)
1: 118; 2: 4580
